Multi-source literature compilation: pIC50 on Epidermal growth factor receptor (Homo sapiens).
Numbers only, as −log10 of the molar value.

Would you please look over these solved cases?
smiles_data: Fc1ccc(Nc2ncnc3nc(Nc4ccc(CCN5CCOCC5)cc4)sc23)cc1Cl
pIC50: 7.66
--
smiles_data: O=Cc1c(O)cccc1Oc1cc(C(=O)/N=c2\[nH]c3ccccc3n2[C@H]2CC[C@@H](O)CC2)ccn1
pIC50: 8.08
--
smiles_data: Cc1nn(C)c2c1/C=C/c1n[nH]c3ccc(cc13)-c1cnn(C)c1O[C@@H](C)CN(C1CC1)C2
pIC50: 6.77
--
smiles_data: CC#CC(=O)N[C@@H](C)c1nc(-c2ccc(C(=O)Nc3cc(C(F)(F)F)ccn3)cc2)c2c(N)nccn12
pIC50: 6.49
--
smiles_data: Cc1cc(NC(=O)/C=C/CN(C)C)cc(Nc2ncc(Cl)c(Nc3ccc4ccccc4c3)n2)c1
pIC50: 6.21

Which pIC50 value is on record for `CCc1cc(Nc2ncc(Cl)c(Nc3ccc(-c4ccnc5c4ccn5C)cc3P(C)(C)=O)n2)c(OC)cc1N1CCC(N2CCN(C)CC2)CC1` ?
7.14

----------
Multi-source literature compilation: IC50 on Epidermal growth factor receptor (Homo sapiens, UniProt P00533).

Would you please look over these solved cases?
smiles_data: CCOc1noc2c1/C=C/c1n[nH]c3ccc(cc13)-c1cnn(C)c1O[C@@H](C)CN(C)C2
target_desc: Epidermal growth factor receptor (Homo sapiens, UniProt P00533)
IC50: 0.195 µM

smiles_data: Cc1cccc(COc2ccc(-n3c(=O)n(-c4cccc(N(C)C(=O)/C=C/CN(C)C5CC5)c4)c4ncnc(N)c43)cc2)c1
target_desc: Epidermal growth factor receptor (Homo sapiens, UniProt P00533)
IC50: 1 to 10 µM

smiles_data: C=CC(=O)Nc1cc(CN2CCNC(=O)C2)cc(-c2cnc3ccccc3n2)c1
target_desc: Epidermal growth factor receptor (Homo sapiens, UniProt P00533)
IC50: 2.86 µM

Hi, could you look up IC50 for each item in my list?
1. CN(C)C/C=C/C(=O)N(C)[C@H]1CC[C@@H](Nc2n[nH]c3nccc(Oc4cccc(Oc5ccccc5)c4)c23)CC1
2. CC(C)c1nc(-c2cccc(NS(=O)(=O)c3ccco3)c2)c(-c2ccnc(Nc3ccc(N4CCOCC4)nc3)n2)s1
3. C=CC(=O)Nc1cc(-c2c(-c3ccc(C4CCN(C)CC4)cc3)[nH]c3nccc(Cl)c23)cc(C)c1C
4. Cc1cc(Nc2ncc(C)c(Nc3ccccc3P(C)(C)=O)n2)ccc1N1CC2(CC(N)C2)C1

1: 0.1 to 1 µM; 2: > 1 µM; 3: ≤ 0.1 µM; 4: 0.057 µM

Hi, could you look up IC50 for each item in my list?
1. CCNc1nc(-c2cc(OC)cc(OC)c2)c(-c2ccnc(Nc3ccc(OC4CCN(CCS(C)(=O)=O)CC4)c(F)c3)n2)o1
2. CCN1CCC(Nc2ccc3c(c2)/C(=C(\c2cc(F)cc(F)c2)c2ncc[nH]2)C(=O)N3)CC1
3. [2H]C([2H])([2H])OC([2H])([2H])C([2H])([2H])Oc1ccc(Nc2ncc(F)c(Nc3cccc(NC(=O)C=C)c3)n2)cc1
4. Cc1ccc(Oc2ccc(Nc3ncnc4sc5c(c34)CCN(C(=O)/C=C/CN3CCC(CO)(CO)CC3)C5)cc2C)cn1

1. > 1 µM
2. 0.05 to 0.5 µM
3. 0.01 to 0.1 µM
4. > 10 µM

Hi, could you look up IC50 for each item in my list?
1. CCOc1ccc(Nc2nccc(-c3sc(N4CCCC4)nc3-c3cccc(NS(=O)(=O)c4c(F)cccc4F)c3)n2)cc1N1CCN(CCS(C)(=O)=O)CC1
2. C#Cc1cccc(Nc2ncnc3nc(Nc4ccc(CN5CCC[C@@H]5CO)cc4)sc23)c1
3. CN(C/C=C/C(=O)N1CCC[C@H]1CNc1n[nH]c2nccc(Oc3ccc(Oc4ccccc4)cc3)c12)C1CC1

["< 0.1 µM", "0.01 µM", "1 to 10 µM"]
